biological target: (UniProt Q0SF39); test: HPLC assay of HPPD in vitro kinetic properties
readout label: pKi
# log scale: pKi equals minus log10 of the concentration in mol/L

The recorded pKi for CS(=O)(=O)c1cc(C(F)(F)F)ccc1C(=O)C(C#N)C(=O)C1CC1 (stereo not shown) is 5.44

* * *

target: Arabidopsis thaliana HPPD SEQ ID No. 10 (Arabidopsis thaliana, UniProt P93836)
Sequence (P93836 with tags, fused parts or gaps): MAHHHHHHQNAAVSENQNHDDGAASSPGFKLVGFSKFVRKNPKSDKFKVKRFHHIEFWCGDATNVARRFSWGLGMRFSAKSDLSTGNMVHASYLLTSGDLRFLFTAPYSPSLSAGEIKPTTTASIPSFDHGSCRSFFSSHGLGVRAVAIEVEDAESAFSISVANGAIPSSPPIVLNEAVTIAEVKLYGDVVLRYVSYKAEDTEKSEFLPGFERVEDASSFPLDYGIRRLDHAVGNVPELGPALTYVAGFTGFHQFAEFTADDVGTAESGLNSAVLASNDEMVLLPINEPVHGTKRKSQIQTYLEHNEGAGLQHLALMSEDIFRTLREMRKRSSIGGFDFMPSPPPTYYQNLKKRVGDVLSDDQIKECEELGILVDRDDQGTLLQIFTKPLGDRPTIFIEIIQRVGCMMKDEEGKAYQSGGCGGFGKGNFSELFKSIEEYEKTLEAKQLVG
readout label: pKi
# log scale: pKi equals minus log10 of the concentration in mol/L

Form: item CS(=O)(=O)c1ccc(C(=O)C2C(=O)CCCC2=O)c(Cl)c1COCC(F)(F)F ; test system Arabidopsis thaliana HPPD SEQ ID No. 10 (Arabidopsis thaliana, UniProt P93836); pKi: 7.82

* * *

Item-by-item account of percentage of inhibition compared to activity in absence of the inhibitor
tested on: Rhodococcus HPPD SEQ ID No. 5 (FMP22e); experiment: biochemical; assay type: biochemical, Rhodococcus sp. (strain RHA1), isolate ro03041; details: SEQ ID No. 5; 5.0 × 10^−6 M inhibitor
Lab book: enter the figure in %, no units written.

In the examples that follow, each entry is paired with its recorded percentage of inhibition compared to activity in absence of the inhibitor.
molecule: COCCOCc1nc(C(F)(F)F)ccc1C(=O)C1=C(O)C2CCC(C2)C1=O (stereo not drawn)
study target: Rhodococcus HPPD SEQ ID No. 5 (FMP22e)
value reported: 0
--
molecule: Cc1ccc(C(=O)COc2c(C(=O)c3ccc(Cl)c(C)c3Cl)c(C)nn2C)cc1
study target: Rhodococcus HPPD SEQ ID No. 5 (FMP22e)
value reported: 57
--
molecule: CS(=O)(=O)c1ccc(C(=O)C2C(=O)CCCC2=O)c(Cl)c1COCC(F)(F)F
study target: Rhodococcus HPPD SEQ ID No. 5 (FMP22e)
value reported: 36
--
molecule: CS(=O)(=O)c1cc(C(F)(F)F)ccc1C(=O)C(C#N)C(=O)C1CC1 (stereo not drawn)
study target: Rhodococcus HPPD SEQ ID No. 5 (FMP22e)
value reported: 27
--
molecule: Cc1nn(C)c(O)c1C(=O)c1ccc(C(F)(F)F)cc1S(C)(=O)=O
study target: Rhodococcus HPPD SEQ ID No. 5 (FMP22e)
value reported: 0

The recorded percentage of inhibition compared to activity in absence of the inhibitor for CS(=O)(=O)c1ccc(C(=O)C2C(=O)CCCC2=O)c(Cl)c1COCC1CCCO1 (stereo not drawn) is 43

* * *

biological target: UniProtKB Q0SF39; assay: biochemical; type: biochemical, Rhodococcus sp. (strain RHA1), isolate ro02040; conditions: read-out: pI50 (converted)
readout label: IC50
Answer shape: numeric part, then the unit.

In the examples that follow, each entry is paired with its recorded IC50.
molecule: CS(=O)(=O)c1cc(C(F)(F)F)ccc1C(=O)C(C#N)C(=O)C1CC1 (stereo not shown)
IC50: 25.1 µM
--
molecule: COCCOCc1nc(C(F)(F)F)ccc1C(=O)C1=C(O)C2CCC(C2)C1=O (stereo not shown)
IC50: 63.1 µM
--
molecule: Cc1ccc(C(=O)COc2c(C(=O)c3ccc(Cl)c(C)c3Cl)c(C)nn2C)cc1
IC50: 2.51 µM

Let us examine a further case.
The recorded IC50 for CS(=O)(=O)c1ccc(C(=O)C2C(=O)CCCC2=O)c(Cl)c1COCC1CCCO1 (stereo not shown) is 2.51 µM
